Measured values drawn from PubChem BioAssay (EPA / NIEHS) for this set.

- Read-out: Pro-epidermal growth factor (Homo sapiens) (UniProt P01133)
- Experimental protocol: LTEA_HepaRG_EGF: Life Technologies and Expression Analysis (LTEA) Assay for Epidermal growth factor (EGF) using HepaRG (AID 2283489)
- Reported conditions: mRNA level, 48 h; actives raise or lower the signal
Active and inactive are the calls of the source. The calls were made as follows: active = hit-call score of the fitted dose curve at least 0.9, where 1 is the maximum; inactive = score below 0.9.
Hello, when you answer, please use one of the following outcomes: active, inactive

Take a look at these entries with their results.
smiles_text=O=c1[nH]sc2ccccc12 label=inactive
smiles_text=CN(C)C(=O)C1(N2CCCCC2)CCN(CC[C@@]2(c3ccc(Cl)c(Cl)c3)CN(C(=O)c3ccccc3)CCO2)CC1 label=active
smiles_text=Cc1ncc(CO)c(CO)c1O label=inactive

Tell me the recorded outcome of this test for c1ccc2n[nH]nc2c1 .
inactive

Now try Oc1ccc2ccccc2c1 .
inactive

Now try Cc1occc1C(=O)Nc1ccc(C(=O)N2CCC(F)(F)/C(=C\C(=O)N3CCC(N4CCCCC4)CC3)c3ccccc32)cc1 .
inactive

* * *

- Experimental protocol: Tanguay_ZF_120hpf_PFIN_legacy: (Legacy) Oregon State University Tanguay Lab 120 Hour Post-fertilization zebrafish Assay for Pectoral Fin Malformation (AID 2283648);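 also: each larva judged yes or no for fin defect by brightfield with dead larvae skipped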
Records with an inconclusive call do not appear. Active and inactive are the calls of the source. The calls were made as follows: active = hit-call score of the fitted dose curve at least 0.9, where 1 is the maximum; inconclusive = response in the unintended direction; inactive = score below 0.9.
Hello, when you answer, please use one of the following outcomes: yes (1) = active, no (0) = inactive

Take a look at these entries with their results.
smiles_text=CCN(CC)C(=O)c1cc(S(=O)(=O)Cc2ccccc2)c(N2CCC(c3ccccc3)CC2)cc1N(CC)CCN(C)C label="no (0)"
smiles_text=CCN(Cc1cccc(S(=O)(=O)O)c1)c1ccc(C(=C2C=CC(=[N+](CC)Cc3cccc(S(=O)(=O)O)c3)C=C2)c2ccccc2S(=O)(=O)[O-])cc1 label="no (0)"
smiles_text=O=C(O)c1ccccc1-n1cc(C(=O)O)c(=O)c2cc(Nc3c(F)cc(F)cc3Cl)c(Cl)cc21 label="no (0)"
smiles_text=CN(C)C(=O)C1(N2CCCCC2)CCN(CC[C@@]2(c3ccc(Cl)c(Cl)c3)CN(C(=O)c3ccccc3)CCO2)CC1 label="no (0)"
smiles_text=CCN(Cc1cccnc1)C(=O)c1cccc(Cl)c1[C@]1(C)C(=O)N(Cc2ccc(OC)cc2OC)c2ccc(Cl)cc21 label="no (0)"

Tell me the recorded outcome of this test for CCOC(=O)O[C@H](C)OC(=O)c1ccc2c(c1)cc(C(=O)NC1CCN(C(C)C)CC1)n2Cc1cc(-c2ccc(Cl)s2)on1 .
no (0)

Now try NC(=O)c1nc(-c2cccc(-c3cc(F)ccc3OCC(F)(F)C(F)(F)F)c2)n[nH]1 .
yes (1)

* * *

- Experimental protocol: ACEA_ER_AUC_viability: ACEA Biosciences xCELLigence Real-Time Cell Analysis on Estrogen Receptor Agonism for Viability (AID 2283782);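 also: continuous compound exposure with impedance area under curve over 80 h; hit means loss of impedance signal meaning reduced cell growth or viability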
Records with an inconclusive call do not appear. Activity calls are given as the source filed them. Rule for the calls: active = hit-call score of the fitted dose curve at least 0.9, where 1 is the maximum; inconclusive = response in the unintended direction; inactive = score below 0.9.
Hello, when you answer, please use one of the following outcomes: T for active, F for inactive

Take a look at these entries with their results.
smiles_text=CCCOC(=O)c1cc(O)c(O)c(O)c1 label=F
smiles_text=c1ccc2n[nH]nc2c1 label=F
smiles_text=CCCCCCCCCCCC[N+](C)(C)C label=T
smiles_text=O=c1ccc2ccccc2o1 label=F
smiles_text=CCCCCCCCCCCCO label=T

Tell me the recorded outcome of this test for Cc1cc2c(cc1C(F)(F)F)N(C(=O)Nc1ccc(Oc3cccnc3C)nc1)CC2 .
T

Now try CC[C@H](NC(=O)c1cc(F)ccc1NS(=O)(=O)c1cccc2cccnc12)c1ccccc1 .
F

Now try Clc1cc(Cl)c2c(c1)N=C1CCCCCN1C2 .
F

Now try CC(C)(C)c1cc(/C=C2\SC(N)=NC2=O)cc(C(C)(C)C)c1O .
T

Now try CCCCCCCCCC(=O)O .
F

Now try CCCC(=O)OCCC(C)C .
F

Now try O=CCCCC=O .
T

Now try COc1cccc([C@H](O)C2CCN(CCc3ccc(F)cc3)CC2)c1OC .
F

Now try O=C=NCCCCCCN=C=O .
F
